Values from the supplement of paper PMC11061612

Examples of compounds with documented Bliss excess follow.
Test system: EW-3 (Ewing's Sarcoma)
Assay: Bliss excess, mean over the matrix (fraction); higher = more synergy
Response field accepts a number only; no unit should be typed.

Example results:
1) CN(C)CCCOc1ccc(-c2ccc3ncc4c(c3c2)n(C2CCOCC2)c(=O)n4C)cn1 [AZD0156] + O=C(c1cc(Cc2n[nH]c(=O)c3ccccc23)ccc1F)N1CCN(C(=O)C2CC2)CC1 [Olaparib] (first compound max 3 µM, partner max 3 µM); 0.13
2) O=C(c1cc(Cc2n[nH]c(=O)c3ccccc23)ccc1F)N1CCN(C(=O)C2CC2)CC1 [Olaparib] + CC1(C)CCC(CN2CCN(c3ccc(C(=O)NS(=O)(=O)c4ccc(NCC5CCOCC5)c([N+](=O)[O-])c4)c(Oc4cnc5[nH]ccc5c4)c3)CC2)=C(c2ccc(Cl)cc2)C1 [Venetoclax] (first compound max 10 µM, 7x7, partner max 1 µM); 0.0351
3) CN(CCO)CC[C@H](CSc1ccccc1)Nc1ccc(S(=O)(=O)NC(=O)c2ccc(N3CCC([C@@H](O)c4ccccc4-c4ccc(Cl)cc4)CC3)cc2)cc1S(=O)(=O)C(F)(F)F [AZD4320] + CN(C)CCCOc1ccc(-c2ccc3ncc4c(c3c2)n(C2CCOCC2)c(=O)n4C)cn1 [AZD0156] (first compound max 1 µM, 7x7, partner max 1 µM); 0.0012

Turning to the following compound.
Query string: For the compound Cn1cnc2c(F)c(Nc3ccc(Br)cc3Cl)c(C(=O)NOCCO)cc21 [Selumetinib] + CCN(CCO)CCCOc1ccc2c(Nc3cc(CC(=O)Nc4cccc(F)c4)[nH]n3)ncnc2c1 [AZD2811] (first compound max 10 µM, 7x7, partner max 1 µM) , report Bliss excess.
Result string: -0.0112

###

Tested on: JHH-7 (Hepatocellular Carcinoma)
Test: combination Emax (second highest fraction inhibited in the dose matrix, 72 h); higher = more inhibition; extreme values may be limits of the assay
Entries annotated with measured combination Emax
Please reply with the value in numeric form only.

1) Cc1c2c(nn1C)CSCc1cc(n(C)n1)CSc1cc(c3ccccc3c1)OCCCc1c(C(=O)O)n(C)c3c-2c(Cl)ccc13 [AZD5991] + CS(=O)(=O)CCNCc1ccc(-c2ccc3ncnc(Nc4ccc(OCc5cccc(F)c5)c(Cl)c4)c3c2)o1 [Lapatinib] (first compound max 1 µM, 7x7, partner max 10 µM); 0.348

Query string: Give JHH-7 (Hepatocellular Carcinoma) combination Emax for the following compound: CC1(C)CCC(CN2CCN(c3ccc(C(=O)NS(=O)(=O)c4ccc(NCC5CCOCC5)c([N+](=O)[O-])c4)c(Oc4cnc5[nH]ccc5c4)c3)CC2)=C(c2ccc(Cl)cc2)C1 [Venetoclax] + C1CN(CCC1(C(=O)N[C@@H](CCO)C2=CC=C(C=C2)Cl)N)C3=NC=NC4=C3C=CN4 [Capivasertib] (first compound max 1 µM, 7x7, partner max 3 µM)
Result string: 0.149

###

Below, each of the compounds is paired with its reported Bliss excess value.
System: RPMI-7951 (Melanoma)
Test: Bliss excess, mean over the matrix (fraction); higher = more synergy
Enter a number only.

Examples with answers:
1) CN(CCO)CC[C@H](CSc1ccccc1)Nc1ccc(S(=O)(=O)NC(=O)c2ccc(N3CCC([C@@H](O)c4ccccc4-c4ccc(Cl)cc4)CC3)cc2)cc1S(=O)(=O)C(F)(F)F [AZD4320] + C1CN(CCC1(C(=O)N[C@@H](CCO)C2=CC=C(C=C2)Cl)N)C3=NC=NC4=C3C=CN4 [Capivasertib] (first compound max 1 µM, 7x7, partner max 3 µM); 0.0055
2) CN(CCO)CC[C@H](CSc1ccccc1)Nc1ccc(S(=O)(=O)NC(=O)c2ccc(N3CCC([C@@H](O)c4ccccc4-c4ccc(Cl)cc4)CC3)cc2)cc1S(=O)(=O)C(F)(F)F [AZD4320] + Cc1cc2ncnn2cc1Nc1ncc2c(n1)n(C1CCOCC1)c(=O)n2C [AZD7648] (first compound max 1 µM, 7x7, partner max 10 µM); -0.0109
3) Cc1c2c(nn1C)CSCc1cc(n(C)n1)CSc1cc(c3ccccc3c1)OCCCc1c(C(=O)O)n(C)c3c-2c(Cl)ccc13 [AZD5991] + C[C@@H](Nc1cc(F)cc(F)c1)c1cc(C(=O)N(C)C)cc2c(=O)cc(N3CCOCC3)oc12 [AZD8186] (first compound max 1 µM, 7x7, partner max 3 µM); 0.0878
4) CN(CCO)CC[C@H](CSc1ccccc1)Nc1ccc(S(=O)(=O)NC(=O)c2ccc(N3CCC([C@@H](O)c4ccccc4-c4ccc(Cl)cc4)CC3)cc2)cc1S(=O)(=O)C(F)(F)F [AZD4320] + C=CCn1c(=O)c2cnc(Nc3ccc(N4CCN(C)CC4)cc3)nc2n1-c1cccc(C(C)(C)O)n1 [AZD1775] (first compound max 1 µM, partner max 1 µM); -0.0023
5) CC1(C)CCC(CN2CCN(c3ccc(C(=O)NS(=O)(=O)c4ccc(NCC5CCOCC5)c([N+](=O)[O-])c4)c(Oc4cnc5[nH]ccc5c4)c3)CC2)=C(c2ccc(Cl)cc2)C1 [Venetoclax] + C1CN(CCC1(C(=O)N[C@@H](CCO)C2=CC=C(C=C2)Cl)N)C3=NC=NC4=C3C=CN4 [Capivasertib] (first compound max 1 µM, 7x7, partner max 3 µM); -0.0233

Read the next record carefully.
Query string: Give Bliss excess for this entry on RPMI-7951 (Melanoma): Cn1cnc2c(F)c(Nc3ccc(Br)cc3Cl)c(C(=O)NOCCO)cc21 [Selumetinib] + C[C@@H]1COCCN1C2=NC(=NC(=C2)C3(CC3)[S@](=N)(=O)C)C4=C5C=CNC5=NC=C4 [AZD6738] (first compound max 10 µM, 7x7, partner max 10 µM)
Result string: 0.0239
